Just for reference, patent US11453681B2 is where these values come from.

# EXPERIMENTAL_SYSTEM: UniProt Q92918
# MEASUREMENT_NOTES: HPK1 IC50 Assay
# TEST_CONTEXT: recombinant HPK1 kinase domain 0.15 nM, synthetic peptide substrate STK S1, 3 hours at 25° C., time-resolved fluorescence energy transfer; geometric mean of multiple experiments
Catalogue of IC50 readings, one per entry.

Some compounds with recorded IC50:
compound="Cc1c(-c2ccc3c(c2)/C(=C/c2cnc(C4CC4)[nH]2)C(=O)N3)cnc2c1NCCO2 [Compound C34]" readout_type=IC50 test_result="0.13 nM"
compound="Cc1c(-c2cc(F)c3c(c2)/C(=C/c2cc4ccccc4[nH]2)C(=O)N3)cnc2c1NCCO2 [Compound C53]" readout_type=IC50 test_result="0.16 nM"
compound="Cc1c(-c2cc(F)c3c(c2C)/C(=C/c2cc(C#N)c[nH]2)C(=O)N3)cnc2c1NCCO2 [Compound C12]" readout_type=IC50 test_result="0.67 nM"
compound="Cc1cc2c(cc1-c1cnc3c(c1C)NCCO3)/C(=C/c1cc3ccncc3[nH]1)C(=O)N2 [Compound C37]" readout_type=IC50 test_result="0.69 nM"
compound="Cc1c(-c2cnc3c(c2)/C(=C/c2cc4cnccc4[nH]2)C(=O)N3)cnc2c1NCCO2 [Compound C47]" readout_type=IC50 test_result="1.13 nM"

Could you now consider this next compound?
Fill in: IC50 of Cc1c(-c2cc(F)c3c(c2C)/C(=C/c2cn[nH]c2)C(=O)N3)cnc2c1NCCO2 [Compound C65] is ___ 1.03 nM

----------
# EXPERIMENTAL_SYSTEM: human HPK1 (MAP4K1) (Homo sapiens (Human))
# Sequence (Q92918 17-274): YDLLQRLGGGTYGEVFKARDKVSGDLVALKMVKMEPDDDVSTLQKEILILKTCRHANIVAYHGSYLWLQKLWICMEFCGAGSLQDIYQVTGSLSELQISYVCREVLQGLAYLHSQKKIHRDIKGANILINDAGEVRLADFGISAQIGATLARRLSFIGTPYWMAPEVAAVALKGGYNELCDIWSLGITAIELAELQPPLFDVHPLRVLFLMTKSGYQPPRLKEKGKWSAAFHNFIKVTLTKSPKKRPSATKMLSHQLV
# MEASUREMENT_NOTES: HPK1 IC50 Assay
# TEST_CONTEXT: recombinant HPK1 kinase domain 0.15 nM, synthetic peptide substrate STK S1, 3 hours at 25° C., time-resolved fluorescence energy transfer; geometric mean of multiple experiments
Below is a list of entries, each paired with its recorded IC50 value.
Quick note: give the figure in nM, leave out the unit.

A selection of reference data follows.
compound="Cc1c(-c2ccc3c(c2)C(=Cc2cccs2)C(=O)N3)cnc2c1NCCO2 (racemic)" experimental_system="human HPK1 (MAP4K1) (Homo sapiens (Human))" readout_unit=nM test_result=1.88
compound=Cc1cc2c(cc1-c1cnc3c(c1C)NCCO3)/C(=C/c1cc3cnccc3[nH]1)C(=O)N2 experimental_system="human HPK1 (MAP4K1) (Homo sapiens (Human))" readout_unit=nM test_result=0.07
compound=Cc1ncc(/C=C2\C(=O)Nc3c(F)cc(-c4cnc5c(c4C)NCCO5)c(C)c32)[nH]1 experimental_system="human HPK1 (MAP4K1) (Homo sapiens (Human))" readout_unit=nM test_result=0.15
compound=Cc1c(-c2cc3c(cc2F)NC(=O)/C3=C\c2cc3cnccc3[nH]2)cnc2c1NCCO2 experimental_system="human HPK1 (MAP4K1) (Homo sapiens (Human))" readout_unit=nM test_result=0.16
compound=Cc1c(-c2ccc3c(c2)/C(=C/c2cc4cccnc4[nH]2)C(=O)N3)cnc2c1NCCO2 experimental_system="human HPK1 (MAP4K1) (Homo sapiens (Human))" readout_unit=nM test_result=1.1

Give its IC50 value. Item: Cc1ncc(/C=C2\C(=O)Nc3cc(C)c(-c4cnc5c(c4C)NCCO5)cc32)[nH]1 0.19
